Source listed as PubChem BioAssay (NCI).

system: HCC-2998 colon; experiment: NCI-60 one-dose screen, 48 h (100 = growth as untreated, 0 = no growth, -100 = all killed); conditions: 10 µM unless noted
Compounds without any hit were thinned out: in the full panel of roughly 83,000, 20% have a hit.
So basically, if growth comes in under 90% it's 1, and if it's 90% or more it's 0.

{"columns": ["compound", "assigned-class"],
 "data": [
  ["COC(=O)c1sc(-c2ccc(C)cc2)cc1O", 0],
  ["CCOC(=O)c1c(Nc2nc3ccccc3s2)sc2c1CCC(=O)C2", 0],
  ["CS(=O)(=O)c1cccc(Nc2ncc3cc(-c4ccccc4Cl)ccc3n2)c1", 1],
  ["CC1=NC(=S)NC(c2ccccc2)/C1=C1/CC(c2ccccc2O)NN1 (stereo unspecified)", 0],
  ["Cc1cc2c(C(C)C)c(O)c(O)c(/C=N/O)c2c(O)c1-c1c(C)cc2c(C(C)C)c(O)c(O)c(/C=N/O)c2c1O", 1],
  ["Cc1nn(C)c2ncnc(Nc3ccccc3Br)c12", 0]
]}

###

test system: SK-OV-3 ovarian; experiment: NCI-60 one-dose screen, 48 h (100 = growth as untreated, 0 = no growth, -100 = all killed); conditions: 10 µM unless noted
About 83,000 compounds went through this panel and 20% of them were active in at least one assay; those are over-represented in the sample as a whole.
value-kind: growth (%)

{"columns": ["molecule", "value-unit", "test-value"],
 "data": [
  ["O=C(/C=C/c1ccc(Cl)cc1)c1ccc(-n2cc(CN3CCN(c4cc5c(cc4F)c(=O)c(C(=O)O)cn5C4CC4)CC3)nn2)cc1", "%", 84.6],
  ["Cc1nc2ccccc2c(/C=C/c2ccc(Br)cc2)c1C(=O)/C=C/c1ccccc1", "%", 49.4],
  ["C/C(=C(\\c1ccc(OCCCN(C)C)cc1)c1ccc(OC(=O)Cc2ccccc2)cc1)c1ccc(Cl)cc1", "%", 73.3],
  ["NC(=N\\N=C/c1ccc(Cl)cc1Cl)/C(N)=N\\N=C/c1ccc(Cl)cc1Cl", "%", 9.34],
  ["CCN(CC)CCOc1ccc(/C(=C(\\C)Cc2ccc(OC)cc2)c2ccc(O)cc2)cc1", "%", 64.5],
  ["O=C(Cn1cc(CSc2nc3ccccc3o2)nn1)Nc1ccc([N+](=O)[O-])cc1", "%", 76.6],
  ["COc1cc(C(=O)c2c(-c3ccccc3)oc3ccccc23)cc(OC)c1O", "%", 51.2],
  ["O=C(/C=C/c1ccc([N+](=O)[O-])cc1)c1cccc(Nc2nc(Nc3ccccc3)nc(Nc3ccccc3)n2)c1", "%", 81],
  ["COc1ccc(C2=NN3C(C2)c2cc(Br)ccc2OC3c2ccncc2)cc1 (stereo not drawn)", "%", 70.6],
  ["CCCc1cc(CCC)n2nc(N)nc2n1", "%", 105],
  ["Cn1cc(-c2ccc3c(Nc4cccc(NC(=O)Nc5cccc(F)c5)c4)ncnc3c2)cn1", "%", 3.1],
  ["COC1CC(O)C2=C(CC3C(/C(C)=C\\CC=C(C)C)CCC3(C)O2)C1=O (stereo not drawn)", "%", 107],
  ["O=C(O)c1nn(-c2ccc(Cl)cc2)nc1N1CCCC1", "%", 97.2],
  ["CO[C@H]1/C=C/O[C@@]2(C)Oc3c(C)c(O)c4c(O)c(c5c(nc6cc(C)ccn65)c4c3C2=O)NC(=O)/C(C)=C\\C=C\\[C@H](C)[C@H](O)[C@@H](C)C(O)[C@@H](C)[C@H](OC(C)=O)[C@@H]1C (stereo partly drawn)", "%", 31.9],
  ["N#Cc1c(-c2ccc(Cl)cc2)nc(NN=Cc2cccc(Cl)c2)nc1N1CCOCC1", "%", 111],
  ["c1ccc2c(-c3cnn4cc(-c5ccc(N6CCNCC6)cc5)cnc34)ccnc2c1", "%", -86.4],
  ["O=C(Nc1cccc(Cn2c(=O)[nH]c3ccc(Oc4ncccn4)cc3c2=O)c1)c1cccc(Cl)c1", "%", 82.5],
  ["CCOC(=O)CC1C(CNC(=O)NC)OC(n2cnc3c(NC(=O)Nc4ccccc4)ncnc32)C1O[Si](C)(C)C(C)(C)C (stereo not drawn)", "%", 93.6]
]}
